meta.source: patent US12440484B2

Target: HDAC6 human recombinant (Homo sapiens (Human))
Test: HDAC enzyme activity inhibition (in vitro), HDAC6 assay
Type: biochemical
Settings: samples at 0.1, 1, 10, 100 and 1000 nM; 37° C. 60 minutes; fluorescence Ex 390, Em 460
measure-name: IC50 (nM)

Field: example entries. Status: answers known.
CN1CC=C(c2ccc3c(c2)C(C)(C)C(=O)N(Cc2ccc(-c4nnc(C(F)F)o4)cn2)C3=O)CC1 [Compound 42] = 35
CCCCN1CCN(c2ccc3c(c2)C(C)(C)C(=O)N(Cc2ccc(-c4nnc(C(F)F)o4)cn2)C3=O)CC1 [Compound 147] = 69
CC1(C)C(=O)N(Cc2ccc(-c3nnc(C(F)F)o3)cn2)C(=O)c2ccc(N3CCN(CC4CCCCC4)CC3)cc21 [Compound 48] = 342
O=C1c2ccc(Br)cc2C2(CCCCC2)C(=O)N1Cc1ccc(-c2nnc(C(F)F)o2)cn1 [Compound 107] = 148
CC1(C)C(=O)N(Cc2ccc(-c3nnc(C(F)F)o3)cn2)C(=O)c2cc(C3CCN(S(C)(=O)=O)CC3)ccc21 [Compound 128] = 70

I: CC(C)N1CCN(c2ccc3c(c2)C(C)(C)C(=O)N(Cc2ccc(-c4nnc(C(F)F)o4)cn2)C3=O)CC1 [Compound 26]
II: O=c1c2ccccc2n(CCN2CCCCC2)c(=O)n1Cc1ccc(-c2nnc(C(F)F)o2)cc1 [Compound 11]
Q: Lower value for measured IC50? Options: I , II Label of pick, please.
Result: I

P: CC1(C)C(=O)N(Cc2ccc(-c3nnc(C(F)F)o3)cn2)C(=O)c2ccc(-c3cccnc3)cc21 [Compound 104]
Q: O=C1c2ccc(Br)cc2C2(CCC2)C(=O)N1Cc1ccc(-c2nnc(C(F)F)o2)cn1 [Compound 106]
R: O=c1c2ccccc2n(CC2CCN(C3COC3)CC2)c(=O)n1Cc1ccc(-c2nnc(C(F)F)o2)cn1 [Compound 16]
Q: Order by IC50, ascending. # answer = labels listed in requested order
Result: P, Q, R
(P: 20 nM, Q: 48 nM, R: 257 nM)

====

Target: HDAC6 human recombinant (Homo sapiens (Human))
Test: HDAC enzyme activity inhibition (in vitro), HDAC6 assay
Conditions: samples at 0.1, 1, 10, 100 and 1000 nM; 37° C. 60 minutes; fluorescence Ex 390, Em 460
measure-name: IC50 (nM)

CC1(C)C(=O)N(Cc2ccc(-c3nnc(C(F)F)o3)cn2)C(=O)c2ccc(C3CCN(CC4CCOCC4)CC3)cc21 [Compound 62] = 61
O=c1[nH]c2ccc(F)cc2c(=O)n1Cc1ccc(-c2nnc(C(F)F)o2)cn1 [Compound 67] = 62
O=C1c2ccccc2C(=O)N1Cc1ccc(-c2nnc(C(F)F)o2)cn1 [Compound 1] = 57
Cn1c(=O)n(Cc2ccc(-c3nnc(C(F)F)o3)cn2)c(=O)c2cc(-c3cccc(F)c3)ccc21 [Compound 90] = 41

====

Target: HDAC6 human recombinant (Homo sapiens (Human), UniProt Q9UBN7)
Sequence (Q9UBN7 whole entry): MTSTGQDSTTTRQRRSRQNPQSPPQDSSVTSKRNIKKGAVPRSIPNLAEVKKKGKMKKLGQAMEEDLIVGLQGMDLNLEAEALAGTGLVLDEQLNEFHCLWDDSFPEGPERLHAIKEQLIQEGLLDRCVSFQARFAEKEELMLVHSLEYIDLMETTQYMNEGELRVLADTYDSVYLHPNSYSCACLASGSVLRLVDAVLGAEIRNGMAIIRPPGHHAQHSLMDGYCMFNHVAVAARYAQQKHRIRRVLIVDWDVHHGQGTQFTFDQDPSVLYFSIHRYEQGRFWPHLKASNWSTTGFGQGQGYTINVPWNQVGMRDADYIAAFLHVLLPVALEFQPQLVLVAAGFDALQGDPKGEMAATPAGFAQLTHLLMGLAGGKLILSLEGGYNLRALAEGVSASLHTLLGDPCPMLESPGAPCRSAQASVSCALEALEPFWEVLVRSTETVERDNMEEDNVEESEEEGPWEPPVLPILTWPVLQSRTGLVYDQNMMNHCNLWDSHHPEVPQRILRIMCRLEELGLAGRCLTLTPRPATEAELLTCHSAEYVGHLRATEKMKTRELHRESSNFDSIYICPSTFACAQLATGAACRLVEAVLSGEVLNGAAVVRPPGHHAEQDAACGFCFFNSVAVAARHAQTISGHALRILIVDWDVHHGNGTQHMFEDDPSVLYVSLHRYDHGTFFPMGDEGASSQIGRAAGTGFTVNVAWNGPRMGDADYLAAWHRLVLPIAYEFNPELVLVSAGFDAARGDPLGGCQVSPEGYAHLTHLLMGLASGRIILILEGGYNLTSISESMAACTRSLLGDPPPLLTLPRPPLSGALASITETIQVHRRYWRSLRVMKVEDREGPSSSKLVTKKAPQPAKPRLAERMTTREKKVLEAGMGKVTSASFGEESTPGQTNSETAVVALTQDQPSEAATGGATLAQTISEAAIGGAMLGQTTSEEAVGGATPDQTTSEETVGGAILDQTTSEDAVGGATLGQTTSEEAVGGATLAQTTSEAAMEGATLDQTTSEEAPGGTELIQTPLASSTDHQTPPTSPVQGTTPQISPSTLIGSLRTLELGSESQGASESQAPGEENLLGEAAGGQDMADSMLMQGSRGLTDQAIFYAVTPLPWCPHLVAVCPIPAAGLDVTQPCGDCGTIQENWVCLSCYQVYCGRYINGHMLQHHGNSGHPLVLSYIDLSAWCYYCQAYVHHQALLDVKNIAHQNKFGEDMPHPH
Assay: HDAC enzyme activity inhibition (in vitro), HDAC6 assay
Conditions: samples at 0.1, 1, 10, 100 and 1000 nM; 37° C. 60 minutes; fluorescence Ex 390, Em 460
measure-name: IC50 (nM)

CC1(C)C(=O)N(Cc2ccc(-c3nnc(C(F)F)o3)cn2)C(=O)c2ccc(N3CC(F)(F)C3)cc21 = 41
CN(C)CCn1c(=O)n(Cc2ccc(-c3nnc(C(F)F)o3)cn2)c(=O)c2ccccc21 = 210

I: CC1(C)C(=O)N(Cc2ccc(-c3nnc(C(F)F)o3)cn2)C(=O)c2cc(C3CCN(C4COC4)CC3)ccc21
II: CC1(C)C(=O)N(Cc2ccc(-c3nnc(C(F)F)o3)cn2)C(=O)c2ccc(C3CCN(C4COC4)CC3)cc21
Q: // max by IC50 over [ I , II ] Label of pick, please.
Result: II

====

Target: HDAC6 human recombinant (Homo sapiens (Human))
Test: HDAC enzyme activity inhibition (in vitro), HDAC6 assay
Conditions: samples at 0.1, 1, 10, 100 and 1000 nM; 37° C. 60 minutes; fluorescence Ex 390, Em 460
pIC50: −log10 of the molar value.
measure-name: pIC50

a: COCCn1c(=O)n(Cc2ccc(-c3nnc(C(F)F)o3)cn2)c(=O)c2ccccc21
b: CCCN1CCN(c2ccc3c(c2)C(=O)N(Cc2ccc(-c4nnc(C(F)F)o4)cn2)C(=O)C3(C)C)CC1
c: CC(=O)N1CCC(c2ccc3c(c2)C(=O)N(Cc2ccc(-c4nnc(C(F)F)o4)cn2)C(=O)C3(C)C)CC1
Q: Please order the records by their reported pIC50, lowest number first. # answer = labels listed in requested order
Result: a, b, c

====

Target: HDAC6 human recombinant (Homo sapiens (Human), UniProt Q9UBN7)
Assay: HDAC enzyme activity inhibition (in vitro), HDAC6 assay
Conditions: samples at 0.1, 1, 10, 100 and 1000 nM; 37° C. 60 minutes; fluorescence Ex 390, Em 460
pIC50: −log10 of the molar value.
measure-name: pIC50

I: O=c1c2ccccc2n(Cc2ccc(-c3nnc(C(F)F)o3)cn2)c(=O)n1Cc1ccc(-c2nnc(C(F)F)o2)cn1
II: CC1(C)C(=O)N(Cc2ncc(-c3nnc(C(F)F)o3)cn2)C(=O)c2ccc(Br)cc21
Q: // max by pIC50 over [ I , II ] Label of pick, please.
Result: I
(I: 7.40, II: 6.90)

I: Cn1c(=O)n(Cc2ccc(-c3nnc(C(F)F)o3)cn2)c(=O)c2ccccc21
II: CC1(C)C(=O)N(Cc2ccc(-c3nnc(C(F)F)o3)cn2)C(=O)c2ccc(N3CCN(C4COC4)CC3)cc21
Q: // max by pIC50 over [ I , II ] Label of pick, please.
Result: II

P: CC1(C)C(=O)N(Cc2ccc(-c3nnc(C(F)F)o3)cn2)C(=O)c2cc(-c3ccoc3)ccc21
Q: CC1(C)C(=O)N(Cc2ccc(-c3nnc(C(F)F)o3)cn2)C(=O)c2ccc(N3CC4(COC4)C3)cc21
Q: Lower value for measured pIC50? Options: P , Q Label of pick, please.
Result: P
(P: 7.30, Q: 7.66)

====

Molecular target: HDAC6 human recombinant (Homo sapiens (Human))
Test: HDAC enzyme activity inhibition (in vitro), HDAC6 assay
Settings: samples at 0.1, 1, 10, 100 and 1000 nM; 37° C. 60 minutes; fluorescence Ex 390, Em 460
measure-name: IC50 (nM)

CC1(C)C(=O)N(Cc2ccc(-c3nnc(C(F)F)o3)cn2)C(=O)c2ccc(-c3ccccc3F)cc21 = 59
Cn1c(=O)n(Cc2ccc(-c3nnc(C(F)F)o3)cn2)c(=O)c2cc(-c3ccccc3F)ccc21 = 54
O=c1[nH]c2ccccc2c(=O)n1Cc1ccc(-c2nnc(C(F)F)o2)cn1 = 53

P: COc1ccc(Cn2c(=O)n(Cc3ccc(-c4nnc(C(F)F)o4)cn3)c(=O)c3ccccc32)cc1
Q: CC1(C)C(=O)N(Cc2ccc(-c3nnc(C(F)F)o3)cn2)C(=O)c2c(-c3cccnc3)cccc21
R: CC1(C)C(=O)N(Cc2ccc(-c3nnc(C(F)F)o3)cn2)C(=O)c2ccc(N3CCOCC3)cc21
S: O=c1c2ccccc2n(Cc2ccc(-c3nnc(C(F)F)o3)cn2)c(=O)n1CCc1ccccc1
Q: Rank descending by IC50. # answer = labels listed in requested order
Result: P, S, Q, R

====

Biological target: HDAC6 human recombinant (Homo sapiens (Human), UniProt Q9UBN7)
Experiment: HDAC enzyme activity inhibition (in vitro), HDAC6 assay
Conditions: samples at 0.1, 1, 10, 100 and 1000 nM; 37° C. 60 minutes; fluorescence Ex 390, Em 460
measure-name: IC50 (nM)

Field: example entries. Status: answers known.
CC1(C)C(=O)N(Cc2ccc(-c3nnc(C(F)F)o3)cn2)C(=O)c2cc(C3CCN(C(=O)CO)CC3)ccc21 = 12
CN(C)[C@@H]1CCN(c2ccc3c(c2)C(C)(C)C(=O)N(Cc2ccc(-c4nnc(C(F)F)o4)cn2)C3=O)C1 = 25
CC1(C)C(=O)N(Cc2ccc(-c3nnc(C(F)F)o3)cn2)C(=O)c2ccc(N3CCN(C4CCC(F)(F)CC4)CC3)cc21 = 51
CC(=O)N1CCN(c2ccc3c(c2)C(C)(C)C(=O)N(Cc2ccc(-c4nnc(C(F)F)o4)cn2)C3=O)CC12CC2 = 11
CCC(F)(F)CN1CCN(c2ccc3c(c2)C(C)(C)C(=O)N(Cc2ccc(-c4nnc(C(F)F)o4)cn2)C3=O)CC1 = 683
CC(C)N1CCC(c2ccc3c(c2)C(=O)N(Cc2ccc(-c4nnc(C(F)F)o4)cn2)C(=O)C3(C)C)CC1 = 19

a: CN1CCN(c2ccc3c(c2)C(C)(C)C(=O)N(Cc2ccc(-c4nnc(C(F)F)o4)cn2)C3=O)CC12CC2
b: CC1(C)C(=O)N(Cc2ccc(-c3nnc(C(F)F)o3)cn2)C(=O)c2ccc(N3CCN(c4ncccn4)CC3)cc21
c: CN1CCC(Cn2c(=O)n(Cc3ccc(-c4nnc(C(F)F)o4)cn3)c(=O)c3cc(F)ccc32)CC1
d: CC(C)CN1CCC(c2ccc3c(c2)C(=O)N(Cc2ccc(-c4nnc(C(F)F)o4)cn2)C(=O)C3(C)C)CC1
e: CC(C)(C)OC(=O)N1CCN(c2ccc3c(c2)C(C)(C)C(=O)N(Cc2ccc(-c4nnc(C(F)F)o4)cn2)C3=O)CC1
Q: Order by IC50, ascending. # answer = labels listed in requested order
Result: a, d, b, c, e
(a: 17 nM, d: 34 nM, b: 52 nM, c: 98 nM, e: 158 nM)

a: CC1(C)C(=O)N(Cc2ccc(-c3nnc(C(F)F)o3)cn2)C(=O)c2ccc(N3CCN(CC(F)(F)C(F)F)CC3)cc21
b: CN1CCN(c2ccc3c(c2)C(C)(C)C(=O)N(Cc2ccc(-c4nnc(C(F)F)o4)cn2)C3=O)CC1
Q: Lower value for measured IC50? Options: a , b Label of pick, please.
Result: b

I: CC1(C)C(=O)N(Cc2ccc(-c3nnc(C(F)F)o3)cn2)C(=O)c2ccc(N3CCN(C4CC4)CC3)cc21
II: Cn1c(=O)n(Cc2ccc(-c3nnc(C(F)F)o3)cn2)c(=O)c2cc(-c3cccnc3)ccc21
Q: // max by IC50 over [ I , II ] Label of pick, please.
Result: I
(I: 49 nM, II: 33 nM)

I: CC1(C)C(=O)N(Cc2ccc(-c3nnc(C(F)F)o3)cn2)C(=O)c2cc(-c3cccc4[nH]ccc34)ccc21
II: CC1(C)C(=O)N(Cc2ccc(-c3nnc(C(F)F)o3)cn2)C(=O)c2ccc(C3=CCN(C4COC4)CC3)cc21
Q: Lower value for measured IC50? Options: I , II Label of pick, please.
Result: II
